- assayed_target: ENPP1 (Homo sapiens)
- experiment_notes: ENPP1 enzyme assay with cGAMP substrate (AMP-Glo)
- Type: biochemical
- Design: purchased R&D Systems
Field: Ki. Provide a value for each of the molecules that follow.

Query: Please provide the recorded Ki for `CCN(C)S(=O)(=O)NCCC1CCN(c2ncnc3cc(OC)c(OC)cc23)CC1` , tested on ENPP1 (Homo sapiens).
Reply: 100 to 1000 nM

Query: What do you have for `COc1cc2nc(-c3cccnc3)nc(N3CCC(CCNS(N)(=O)=O)CC3)c2cc1OC` ?
Reply: 100 to 1000 nM

====

- assayed_target: ENPP1 (Homo sapiens, UniProt P22413)
- Sequence (P22413 whole entry): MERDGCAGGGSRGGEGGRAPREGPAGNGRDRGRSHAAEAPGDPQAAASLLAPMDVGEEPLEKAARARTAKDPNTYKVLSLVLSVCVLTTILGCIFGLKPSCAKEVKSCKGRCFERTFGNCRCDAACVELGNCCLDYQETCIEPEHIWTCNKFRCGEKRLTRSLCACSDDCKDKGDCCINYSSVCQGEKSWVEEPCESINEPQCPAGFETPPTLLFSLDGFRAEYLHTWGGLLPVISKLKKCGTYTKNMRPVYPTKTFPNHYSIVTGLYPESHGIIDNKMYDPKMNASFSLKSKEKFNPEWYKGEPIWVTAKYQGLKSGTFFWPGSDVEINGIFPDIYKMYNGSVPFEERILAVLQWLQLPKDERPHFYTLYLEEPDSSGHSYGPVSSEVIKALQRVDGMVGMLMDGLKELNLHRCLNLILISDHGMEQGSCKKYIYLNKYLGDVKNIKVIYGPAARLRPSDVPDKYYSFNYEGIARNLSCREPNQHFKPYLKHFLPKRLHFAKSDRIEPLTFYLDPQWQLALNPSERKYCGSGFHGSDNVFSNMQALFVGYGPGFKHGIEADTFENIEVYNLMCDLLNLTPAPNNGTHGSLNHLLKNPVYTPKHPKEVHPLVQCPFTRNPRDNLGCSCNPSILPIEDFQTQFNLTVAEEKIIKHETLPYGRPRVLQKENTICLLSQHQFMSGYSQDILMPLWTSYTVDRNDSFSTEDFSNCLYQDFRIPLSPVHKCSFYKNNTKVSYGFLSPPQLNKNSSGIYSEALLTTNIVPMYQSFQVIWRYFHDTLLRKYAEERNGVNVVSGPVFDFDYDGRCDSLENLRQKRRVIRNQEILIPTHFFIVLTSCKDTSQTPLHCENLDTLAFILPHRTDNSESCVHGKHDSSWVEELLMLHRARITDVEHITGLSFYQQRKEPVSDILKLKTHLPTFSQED
- experiment_notes: ENPP1 enzyme assay with cGAMP substrate (AMP-Glo)
- Assay type: biochemical
- Parameters: purchased R&D Systems
- settings: 1 µM compound; cGAMP substrate; read-out: cGAMP: % Inhibition at 1 µM
Field: inhibition at 1 µM. Provide a value for each of the compounds that follow.

Query: Dear colleague, I am looking for the recorded inhibition at 1 µM of the following compound: `COc1cc(C(=O)N2CCC(CCNS(N)(=O)=O)CC2)c(N(C)C)cc1OC`
Reply: < 25%

Query: What do you have for `COc1cc2nccc(N3CCC(CCNS(N)(=O)=O)CC3)c2cc1OC` ?
Reply: > 75%

Query: What do you have for `COc1cc2nc(N(C)C)nc(N3CCC(CCNS(N)(=O)=O)CC3)c2cc1OC` ?
Reply: 25 to 50%

Query: What do you have for `NS(=O)(=O)NCCC1CCN(c2ccnc(-c3cccnc3)n2)CC1` ?
Reply: < 25%

Query: What do you have for `COc1cc2ncnc(-c3ccc4c(c3)CN(S(N)(=O)=O)CC4)c2cc1OC` ?
Reply: > 75%

Query: What do you have for `COc1cc(N)c(C(=O)N2CCC(CCNS(N)(=O)=O)CC2)cc1OC` ?
Reply: < 25%

Query: What do you have for `COc1cccc(C(=O)N2CCC(CCNS(N)(=O)=O)CC2)c1` ?
Reply: 25 to 50%

Query: What do you have for `COc1cc2ncc(C#N)c(N3CCC(CCNS(N)(=O)=O)CC3)c2cc1OC` ?
Reply: > 75%

Query: What do you have for `COc1cc2ncnc(N3CCC(NS(N)(=O)=O)CC3)c2cc1OC` ?
Reply: > 75%

====

- assayed_target: ENPP1 (Homo sapiens)
- experiment_notes: Substrate selectivity ratio, inhibition of cGAMP hydrolysis versus ATP hydrolysis
- Type: biochemical
- settings: ratio Ki AMP-pNP / Ki cGAMP
Field: Substrate Selectivity: Ki_AMP-pNP/Ki_cGAMP. Provide a value for each of the molecules that follow.
// print number alone

Query: Dear colleague, I am looking for the recorded Substrate Selectivity: Ki_AMP-pNP/Ki_cGAMP of the following molecule: `COc1ccc2c(Oc3ccc(NS(N)(=O)=O)c(F)c3)ccnc2c1`
Reply: 19.5

Query: What do you have for `COc1cc2nccc(Oc3ccc(S(N)(=O)=O)cc3)c2cn1` ?
Reply: 51

Query: What do you have for `COc1cc2ncc(C#N)c(-c3ccc(CNS(N)(=O)=O)cc3)c2cc1OC` ?
Reply: 49.0

====

Field: pKi. Provide a value for each of the molecules that follow.
- assayed_target: UniProtKB P22413
- experiment_notes: Indirect quantitation of 2',3'-cGAMP hydrolysis (AMP-Glo Assay kit)
- Type: biochemical
- settings: cGAMP substrate; Ki from IC50 by Cheng-Prusoff; read-out: ENPP1 Inhibition -cGAMP: Ki
pKi: −log10 of the molar value.

Query: Please provide the recorded pKi for COc1cc2ncnc(N3CCC(CCNS(=O)(=O)NC(C)=O)CC3)c2cc1OC [Example 200] , tested on UniProtKB P22413.
Reply: 6.00 to 7.00

Query: What do you have for COc1cc2ncnc(NCc3ccc4c(c3)COB4O)c2cc1OC [Example 325] ?
Reply: > 7.00

Query: What do you have for COc1ccc2c(Oc3ccc(CS(N)(=O)=O)cc3)ccnc2c1 [Example 312] ?
Reply: > 7.00

Query: What do you have for COc1cc2ncnc(N3CCC(CCNS(N)(=O)=O)CC3)c2cc1F [Example 206] ?
Reply: > 7.00

Query: What do you have for NS(=O)(=O)c1ccc(Oc2ccnc3[nH]c(=O)ccc23)cc1 [Example 352] ?
Reply: > 7.00

Query: What do you have for COc1ccc2c(NCc3ccc(S(N)(=O)=O)cc3)ccnc2c1 [Example 293] ?
Reply: > 7.00

Query: What do you have for COc1ccc2c(-c3ccc(CCNS(N)(=O)=O)cc3)ccnc2c1 [Example 403] ?
Reply: 6.00 to 7.00

Query: What do you have for NS(=O)(=O)NCCC1CCN(c2ncnc3c2CCNC3)CC1 [Example 232] ?
Reply: 6.00 to 7.00

Query: What do you have for COc1cc2nc(-c3ccccc3)nc(N3CCC(CCNS(N)(=O)=O)CC3)c2cc1OC [Example 8] ?
Reply: < 6.00

Query: What do you have for COc1cc2ncnc(NC(C)c3ccc(NS(N)(=O)=O)cc3)c2cc1OC (stereo in doubt) [Example 254] ?
Reply: > 7.00

Query: What do you have for COc1cc2ncnc(N3CCC(CNS(N)(=O)=O)CC3)c2cc1OC [Example 339] ?
Reply: > 7.00

Query: What do you have for COc1cc2ncnc(NC(=O)c3ccc(NS(N)(=O)=O)cc3)c2cc1OC [Example 188] ?
Reply: 6.00 to 7.00

Query: What do you have for COc1cc2nccc(-c3ccc(CNS(N)(=O)=O)cc3)c2cn1 [Example 415] ?
Reply: 6.00 to 7.00

Query: What do you have for COc1ccc2c(Oc3ccc(S(N)(=O)=O)cc3)c(C#N)cnc2c1 [Example 327] ?
Reply: > 7.00

Query: What do you have for COc1cc2ncnc(NCc3ccc(NS(N)(=O)=O)cc3)c2cc1OC [Example 34] ?
Reply: > 7.00

Query: What do you have for COc1cc2ncnc(-c3ccc(CNS(N)(=O)=O)c(F)c3)c2cc1OC [Example 301] ?
Reply: > 7.00

Query: What do you have for COc1ccc2c(Nc3ccc(NS(N)(=O)=O)cc3)ccnc2n1 [Example 231] ?
Reply: > 7.00

Query: What do you have for N#Cc1cnc2ccccc2c1N1CCC2(CC1)CCN(S(N)(=O)=O)C2 [Example 167] ?
Reply: > 7.00

Query: What do you have for COc1cc2nccc(Nc3ccc(NS(=O)(=O)c4ccccc4)cc3)c2cc1OC [Example 153] ?
Reply: > 7.00

Value source: patent US20230183239A1
